tested on: KB 3-1; test: Maximum intracellular vinblastine accumulation of the KB/MDR cells caused by the compound in 1 h; type: functional, Homo sapiens
READOUT_KIND: Amax
// unit must come after the numeric part

Would you please look over these solved cases?
1. COc1c(OC(C)=O)c(OC(C)=O)cc2oc(-c3ccccc3)cc(=O)c12; 2.9 pmol/10^6 cells
2. COc1c2c(cc3oc(-c4ccccc4)cc(=O)c13)OCO2; 1.5 pmol/10^6 cells

Go through the items and report each one's Amax.
1. CCOc1c(OC)cc2oc(-c3ccccc3)cc(=O)c2c1O
2. CCCCCCCCOc1cc2oc(-c3ccccc3)cc(=O)c2c(O)c1OCCCCCCCC

[A]
1. 2.3 pmol/10^6 cells
2. 1.2 pmol/10^6 cells
